Data origin: the supplement of paper PMC9732359

assay-method-text: protein stability index of a GFP-peptide fusion (yeast GPS) (PSI 1-4); higher = more stable; sorted into four equal gates, so the index is relative within each strain
condition-info: doa10∆
Label fulfilled for high-side protein stability index (at or above 3) and not fulfilled for low-side protein stability index (below it).

- ordered-residues: "SSFVRQELAKSIRSRRP [PRE1]"
  group: "not fulfilled"
- ordered-residues: "LSDYNIQKESTLHLVLR [RPS31]"
  group: "not fulfilled"
- ordered-residues: "EDRNQRIKEMYWKLWID [FAS1]"
  group: "fulfilled"
- ordered-residues: "LPSGVLSRGDDEVTIRR [SMC3]"
  group: "fulfilled"
- ordered-residues: "YQCAMGKQAIGAIAYNQ [RET1]"
  group: "not fulfilled"

Textbook exercise: given the entry ADINSNRLSNPQKNLLL [YOR098C/NUP1] , state whether its protein stability index is greater than or equal to 3.
fulfilled

Is protein stability index at least 3? Consider SNMFDNSADVDMDAQGR [YGL100W/SEH1]
fulfilled

Quick check: does TFLKYFGWLLSDNSVSV [IRR1] have protein stability index greater than or equal to 3?
not fulfilled

Is reported protein stability index greater than or equal to 3 here: DWESDLHIHLNQILQTE [YDL116W/NUP84]
not fulfilled

Could you please find out whether LGLAKSVHHARVLITQR [RPS9A] has protein stability index that meets 3 or exceeds it?
not fulfilled
